Measurement record for PIK3CA (human); quantity recorded: pIC50.
pIC50: −log10 of the molar value.

1. COC(=O)Nc1nc2ccc(-c3ccc4c(c3)CN(c3ncnc5cc(OC)c(OC)cc35)CCO4)cc2[nH]1 7.30 to 8.00
2. CCNc1nc2ccc(-c3ccc4c(c3)CN(c3nc(C)nc5ccccc35)CCO4)cc2[nH]1 7.30 to 8.00
3. Cc1nc2ccc(-c3ccc4c(c3)CN(c3ncnc(C)c3C(C)C)CCO4)cc2[nH]1 6.60 to 7.30
4. Cc1nc2cc(-c3ccc4c(c3)CN(c3nc(N)nc(C)c3Cc3ccc(F)cc3)CCO4)ccc2[nH]1 ≥ 8.00

Next item in the queue.
Entry COc1ccc(-c2ccc3c(c2)CN(c2nc(CN(C)C)nc(C)c2C(C)C)CCO3)cc1NS(C)(=O)=O : reported pIC50 = ?
7.30 to 8.00

---

- target-system: PIK3CA (human)
quantity-kind: IC50

Example results:
compound	target-system	quantity-kind	result
Cc1nc(N2CCOc3ccc(-c4ccc(-c5ncc[nH]5)cc4)cc3C2)c2ccccc2n1	PIK3CA (human)	IC50	10 to 50 nM
Cc1nc2cc(-c3ccc4c(c3)CN(c3nc(CN5CCCC5)nc5c3CC(C)(C)CC5)CCO4)cnc2[nH]1	PIK3CA (human)	IC50	≤ 10 nM
CC1(C)CCc2ncnc(N3CCOc4ccc(-c5cnc6[nH]c(CF)nc6c5)cc4C3)c2C1	PIK3CA (human)	IC50	10 to 50 nM
Cc1nc2ncc(-c3ccc4c(c3)CN(c3ncnc5c3CC(C)CC5)CCO4)cc2[nH]1 (stereo not drawn)	PIK3CA (human)	IC50	10 to 50 nM
Cc1nc(CN(C)C)nc(N2CCOc3ccc(-c4ccc5[nH]c(CF)nc5c4)cc3C2)c1C(C)C	PIK3CA (human)	IC50	≤ 10 nM

Entry Cc1nc(Nc2ccccc2)c(C)c(N2CCOc3ccc(-c4cnc5nc[nH]c5c4)cc3C2)n1 : reported IC50 = ?
10 to 50 nM

Entry CCc1ncnc(N2CCOc3ccc(-c4ccc5nc(C)[nH]c5c4)cc3C2)c1Cc1ccccc1 : reported IC50 = ?
10 to 50 nM

Entry Cc1nc(CN(C)C)nc(N2CCOc3ccc(-c4cnc5sc(N)nc5c4)cc3C2)c1CC(C)C : reported IC50 = ?
50 to 250 nM

Entry Cc1nc2ccc(-c3ccc4c(c3)CN(c3ncnc(C)c3Cc3ccc(C(F)(F)F)cc3)CCO4)cc2[nH]1 : reported IC50 = ?
10 to 50 nM

Entry Cc1nc2ccc(-c3ccc4c(c3)CN(c3ncnc5cc(C(F)(F)F)ccc35)CCO4)cc2[nH]1 : reported IC50 = ?
50 to 250 nM

---

- target-system: UniProt P42336
pIC50: −log10 of the molar value.
quantity-kind: pIC50

Can you look up pIC50 on UniProt P42336 for Cc1ncnc(N2CCOc3ccc(-c4cnc(N)cn4)cc3C2)c1Cc1ccc(F)cc1 ?
6.00 to 6.60

Can you look up pIC50 on UniProt P42336 for CC(C)(O)CCS(=O)(=O)c1cc(-c2ccc3c(c2)CN(c2ncnc4c2CC(C)(C)CC4)CCO3)cnc1N ?
7.30 to 8.00

---

# IC50 listing for each entry below
- target-system: PIK3CA (human) (UniProt P42336)
- Sequence (P42336 whole entry, looked up): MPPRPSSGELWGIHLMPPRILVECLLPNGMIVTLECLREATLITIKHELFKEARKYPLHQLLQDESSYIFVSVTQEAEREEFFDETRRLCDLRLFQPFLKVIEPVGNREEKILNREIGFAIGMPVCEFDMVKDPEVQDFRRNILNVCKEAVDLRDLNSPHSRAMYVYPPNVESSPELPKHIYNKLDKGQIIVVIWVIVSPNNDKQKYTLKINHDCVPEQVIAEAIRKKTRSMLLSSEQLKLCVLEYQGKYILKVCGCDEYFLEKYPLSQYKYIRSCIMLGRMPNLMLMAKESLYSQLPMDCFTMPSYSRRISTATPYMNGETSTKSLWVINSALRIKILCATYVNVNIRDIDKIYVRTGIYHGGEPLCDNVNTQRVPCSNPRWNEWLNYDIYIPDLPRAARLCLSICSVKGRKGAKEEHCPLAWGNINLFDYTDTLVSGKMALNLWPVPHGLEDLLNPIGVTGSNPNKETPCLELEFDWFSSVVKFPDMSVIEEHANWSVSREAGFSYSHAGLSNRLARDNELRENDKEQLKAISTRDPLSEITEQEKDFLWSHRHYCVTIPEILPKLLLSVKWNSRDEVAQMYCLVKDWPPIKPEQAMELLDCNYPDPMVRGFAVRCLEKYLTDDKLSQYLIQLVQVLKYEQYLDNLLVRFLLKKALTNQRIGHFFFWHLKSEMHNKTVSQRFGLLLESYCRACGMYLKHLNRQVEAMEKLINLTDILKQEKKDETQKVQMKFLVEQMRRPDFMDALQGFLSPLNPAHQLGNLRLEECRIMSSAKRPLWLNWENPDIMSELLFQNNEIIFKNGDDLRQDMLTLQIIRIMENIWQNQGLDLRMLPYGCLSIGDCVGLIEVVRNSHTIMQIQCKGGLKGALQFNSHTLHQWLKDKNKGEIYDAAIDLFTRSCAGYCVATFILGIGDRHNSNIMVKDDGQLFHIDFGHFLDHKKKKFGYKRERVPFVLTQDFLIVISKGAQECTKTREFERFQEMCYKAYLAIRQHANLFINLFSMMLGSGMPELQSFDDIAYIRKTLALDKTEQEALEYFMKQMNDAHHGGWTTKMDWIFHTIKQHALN

Example results:
1. Cc1ccc2ncnc(N3CCOc4ccc(-c5ccc6nc(C)[nH]c6c5)cc4C3)c2c1 10 to 50 nM
2. COc1ccc2c(N3CCOc4ccc(-c5cnc6[nH]ccc6c5)cc4C3)nc(C)nc2c1 50 to 250 nM
3. CC[C@H]1CCc2c(ncnc2N2CCOc3ccc(-c4cnc5nc([C@@H](C)N)[nH]c5c4)cc3C2)C1 50 to 250 nM
4. Cc1nc2cc(-c3ccc4c(c3)CN(c3nc(NCCN(C)C)nc(C)c3Cc3ccc(F)cc3)CCO4)ccc2[nH]1 10 to 50 nM

Next item in the queue.
Entry Cc1cccc(Cc2c(C)ncnc2N2CCOc3ccc(-c4ccc5nc(C)[nH]c5c4)cc3C2)c1 : reported IC50 = ?
50 to 250 nM

---

# pIC50 listing for each entry below
- target-system: PIK3CA (human) (UniProt P42336)
pIC50: −log10 of the molar value.

Example results:
compound	pIC50
CC1=Cc2ncnc(N3CCOc4ccc(-c5cnc6nc(C)[nH]c6c5)cc4C3)c2CC1(C)C	7.30 to 8.00
CCNc1nc2ccc(-c3ccc4c(c3)CN(c3nc(CC)nc5ccccc35)CCO4)cc2[nH]1	7.30 to 8.00
CCc1c(C)ncnc1N1CCOc2ccc(-c3cnc4nc(C)[nH]c4c3)cc2C1	6.60 to 7.30
CC1(C)CCc2ncnc(N3CCOc4ccc(-c5cnc6c(c5)S(=O)(=O)NC(=O)N6)cc4C3)c2C1	6.60 to 7.30
CC[C@H]1CCCc2c(ncnc2N2CCOc3ccc(-c4cnc5nc(C)[nH]c5c4)cc3C2)C1	7.30 to 8.00

Can you look up pIC50 on PIK3CA (human) (UniProt P42336) for Cc1ncnc(N2CCOc3ccc(-c4ccc(C(=O)NC5CC5)cc4)cc3C2)c1Cc1ccc(F)cc1 ?
6.00 to 6.60

Can you look up pIC50 on PIK3CA (human) (UniProt P42336) for Cc1nc2ncc(-c3ccc4c(c3)CN(c3nc(CNC5CC5)nc5c3CC(C)(C)CC5)CCO4)cc2[nH]1 ?
7.30 to 8.00

Can you look up pIC50 on PIK3CA (human) (UniProt P42336) for CCNCc1nc2c(c(N3CCOc4ccc(-c5ccc6nc(C)[nH]c6c5)cc4C3)n1)CC(C)(C)CC2 ?
≥ 8.00

Can you look up pIC50 on PIK3CA (human) (UniProt P42336) for CN(C)C(=O)c1cc(-c2ccc3c(c2)CN(c2ncnc4c2CC(C)(C)CC4)CCO3)cnc1N ?
6.00 to 6.60

Can you look up pIC50 on PIK3CA (human) (UniProt P42336) for Cc1nc2cc(-c3ccc4c(c3)CN(c3nc(CF)nc5c3CC(C)(C)CC5)CCO4)ccc2[nH]1 ?
7.30 to 8.00

Can you look up pIC50 on PIK3CA (human) (UniProt P42336) for Cc1nc2ncc(-c3ccc4c(c3)CN(c3ncnc(C)c3C)CCO4)cc2[nH]1 ?
6.60 to 7.30

Can you look up pIC50 on PIK3CA (human) (UniProt P42336) for CCc1c(C)nc(CN(C)C)nc1N1CCOc2ccc(-c3cnc4[nH]c(C)nc4c3)cc2C1 ?
≥ 8.00

Can you look up pIC50 on PIK3CA (human) (UniProt P42336) for CC1(C)CCc2ncnc(N3CCOc4ccc(-c5cnc(N)c(S(=O)(=O)NCCCN)c5)cc4C3)c2C1 ?
≥ 8.00

Can you look up pIC50 on PIK3CA (human) (UniProt P42336) for Cc1nc2ccc(-c3ccc4c(c3)CN(c3ncnc(C)c3CC3CC3)CCO4)cc2[nH]1 ?
6.60 to 7.30

Can you look up pIC50 on PIK3CA (human) (UniProt P42336) for COc1c(OCc2ccccc2)ccc2c(N3CCOc4ccc(-c5ccc6nc(C)[nH]c6c5)cc4C3)ncnc12 ?
7.30 to 8.00

Can you look up pIC50 on PIK3CA (human) (UniProt P42336) for CCOC(=O)Nc1nc2ncc(-c3ccc4c(c3)CN(c3ncnc5c3CC(C)(C)CC5)CCO4)cc2[nH]1 ?
6.60 to 7.30

Can you look up pIC50 on PIK3CA (human) (UniProt P42336) for CC1(C)C=Cc2ncnc(N3CCOc4ccc(-c5ccc(-c6ncc[nH]6)cc5)cc4C3)c2C1 ?
7.30 to 8.00

Can you look up pIC50 on PIK3CA (human) (UniProt P42336) for CC1(C)CCc2ncnc(N3CCOc4ccc(-c5cnc(N)c(S(=O)(=O)NCC(O)CN)c5)cc4C3)c2C1 (stereo not drawn) ?
≥ 8.00

---

pIC50: −log10 of the molar value.
Measurement record for PIK3CA (human) (UniProt P42336); quantity recorded: pIC50.

molecule	target-system	quantity-kind	result
CC1(C)CCc2ncnc(N3CCOc4ccc(-c5cnc(N)c(S(=O)(=O)NC[C@@H]6CCCNC6)c5)cc4C3)c2C1	PIK3CA (human) (UniProt P42336)	pIC50	6.60 to 7.30
CN(C)Cc1nc2c(c(N3CCOc4ccc(-c5ccc(N)nc5)cc4C3)n1)CC(C)(C)CC2	PIK3CA (human) (UniProt P42336)	pIC50	6.60 to 7.30
CC1(C)CCc2ncnc(N3CCOc4ccc(-c5cnc(N)c(S(=O)(=O)N6CC7CNCC7C6)c5)cc4C3)c2C1 (stereo not given)	PIK3CA (human) (UniProt P42336)	pIC50	6.60 to 7.30
CNC1CN(S(=O)(=O)c2cc(-c3ccc4c(c3)CN(c3ncnc5c3CC(C)(C)CC5)CCO4)cnc2N)C1	PIK3CA (human) (UniProt P42336)	pIC50	7.30 to 8.00
COc1cc2ncnc(N3CCOc4ccc(-c5ccc6nc(C)[nH]c6c5)cc4C3)c2cc1OC	PIK3CA (human) (UniProt P42336)	pIC50	6.60 to 7.30

Can you look up pIC50 on PIK3CA (human) (UniProt P42336) for Cc1nc2cc(-c3ccc4c(c3)CN(c3nc(C(C)N(C)C)nc5c3CC(C)(C)CC5)CCO4)cnc2[nH]1 (stereo not given) ?
7.30 to 8.00

Can you look up pIC50 on PIK3CA (human) (UniProt P42336) for COC(=O)Nc1nc2ncc(-c3ccc4c(c3)CN(c3ncnc5c3CC(C)(C)CC5)CCO4)cc2[nH]1 ?
≥ 8.00

Reference source: the Kinase Knowledgebase extract (Sharma et al. 2016)
